normalized growth values for the compounds below.
method_summary: chemical genetic growth profiling, strain panel (AID 1159580);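 also: tested at 20 µM; growth read once vehicle control cultures reached saturation at 30 °C; 1 = growth at the plate median or of vehicle wells; lower values mean less growth of the strain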
protocol_conditions: S. cerevisiae deletion strains, growth OD, locus YAL013W, strain DEP1, stronger effect = lower value
Among all 5,500 compounds or so, about 2,000 (36%) were called active. Inconclusive results (about 18%) are left out. The list shows a part of the results.

compound	normalized growth
CCC(Cc1c(I)cc(I)c(N)c1I)C(=O)O (configuration not stated)	0.979
CC(=O)c1sc(SCc2ccc(Cl)cc2)c2c1CC(C)(C)CC2=O	0.97
C1CCN2C[C@@H]3C[C@H](CN4CCCC[C@@H]34)[C@H]2C1	1.04
O=C(NNC(=S)Nc1ccc(F)cc1)c1ccccc1Cl	0.987
NC(=S)N/N=C\c1ccccc1	0.991
C[n+]1cccc(C(=O)[O-])c1	1.01
CC1(C)C(C(Cl)Cl)C2(Cl)C(Cl)C(Cl)C1(Cl)C2(Cl)Cl (configuration not stated)	0.984
